Species on record: Rattus norvegicus
Assay name: Open TG-GATES - Regimen: Daily Repeat
Type: toxicity, organism-based, Sprague-Dawley
Design: regimen Daily Repeat, gender Male, age 6 weeks
Details: in vivo, po, 100 mg/kg, […], tissue Plasma, route gavage, dose level Low, time 14 day
The threshold is 7 mg/dL. Values of IP beneath it are tagged true (1); values meeting or exceeding it are tagged false (0).

CCOc1ccc(NC(C)=O)cc1 [PHENACETIN] : true (1)
COC(=O)C1=C(C)NC(C)=C(C(=O)OC)C1c1ccccc1[N+](=O)[O-] [NIFEDIPINE] : true (1)
Cc1nnc2n1-c1ccc(Cl)cc1C(c1ccccc1Cl)=NC2 [TRIAZOLAM] : false (0)
O=C(OC[C@H]1O[C@@H](OC(=O)c2cc(O)c(O)c(OC(=O)c3cc(O)c(O)c(O)c3)c2)[C@H](OC(=O)c2cc(O)c(O)c(OC(=O)c3cc(O)c(O)c(O)c3)c2)[C@@H](OC(=O)c2cc(O)c(O)c(OC(=O)c3cc(O)c(O)c(O)c3)c2)[C@@H]1OC(=O)c1cc(O)c(O)c(OC(=O)c2cc(O)c(O)c(O)c2)c1)c1cc(O)c(O)c(OC(=O)c2cc(O)c(O)c(O)c2)c1 [TANNIC ACID] : false (0)

---

Organism: Rattus norvegicus
Assay name: Open TG-GATES - Regimen: Single
Assay type: toxicity, organism-based, Sprague-Dawley
Set-up: regimen Single, gender Male, age 6 weeks
Details: in vivo, po, 0 mg/kg, 6 h, tissue Kidney, route gavage, dose level Control
Measurement kind: KIDNEY_TOTAL (g)

CS(=O)(=O)O.Cc1ccc(NC(=O)c2ccc(CN3CCN(C)CC3)cc2)cc1Nc1nccc(-c2cccnc2)n1 [IMATINIB MESYLATE] : 1.7
CNC(=C[N+](=O)[O-])NCCSCc1ccc(CN(C)C)o1 : 1.9
Brc1ccccc1 : 1.6
CC(C)NNC(=O)c1ccncc1 : 1.9
COC(=O)C1=C(C)NC(C)=C(C(=O)OC)C1c1ccccc1[N+](=O)[O-] : 1.7
CN1C(=O)CCS(=O)(=O)C1c1ccc(Cl)cc1 (centres undefined) : 1.8
NC1=NC(=O)C(c2ccccc2)O1 (centres undefined) : 1.8
Cc1nnc2n1-c1ccc(Cl)cc1C(c1ccccc1Cl)=NC2 : 1.7
CN/C(=N/CCSCc1nc[nH]c1C)NC#N : 1.9
CCOc1ccc(NC(C)=O)cc1 : 1.9
CCCc1cc(=O)[nH]c(=S)[nH]1 : 1.6
O=C(OC[C@H]1O[C@@H](OC(=O)c2cc(O)c(O)c(OC(=O)c3cc(O)c(O)c(O)c3)c2)[C@H](OC(=O)c2cc(O)c(O)c(OC(=O)c3cc(O)c(O)c(O)c3)c2)[C@@H](OC(=O)c2cc(O)c(O)c(OC(=O)c3cc(O)c(O)c(O)c3)c2)[C@@H]1OC(=O)c1cc(O)c(O)c(OC(=O)c2cc(O)c(O)c(O)c2)c1)c1cc(O)c(O)c(OC(=O)c2cc(O)c(O)c(O)c2)c1 : 1.8
Nc1c2c(nc3ccccc13)CCCC2 : 1.9
CN(C)CCC(c1ccc(Cl)cc1)c1ccccn1 (centres undefined) : 1.7

---

Listing: gamma-GTP of selected compounds
Species on record: Rattus norvegicus
Assay name: Open TG-GATES - Regimen: Daily Repeat
Type: toxicity, organism-based, Sprague-Dawley
Design: regimen Daily Repeat, gender Male, age 6 weeks
Details: in vivo, po, 0 mg/kg, 72 h, tissue Plasma, route gavage, dose level Control, time 3 day
Measurement kind: gamma-GTP (IU/L)

CN(C)CCC(c1ccc(Cl)cc1)c1ccccn1 (stereo not drawn) [CHLORPHENIRAMINE] : 1.4
CN/C(=N/CCSCc1nc[nH]c1C)NC#N [CIMETIDINE] : 1
O=C(OC[C@H]1O[C@@H](OC(=O)c2cc(O)c(O)c(OC(=O)c3cc(O)c(O)c(O)c3)c2)[C@H](OC(=O)c2cc(O)c(O)c(OC(=O)c3cc(O)c(O)c(O)c3)c2)[C@@H](OC(=O)c2cc(O)c(O)c(OC(=O)c3cc(O)c(O)c(O)c3)c2)[C@@H]1OC(=O)c1cc(O)c(O)c(OC(=O)c2cc(O)c(O)c(O)c2)c1)c1cc(O)c(O)c(OC(=O)c2cc(O)c(O)c(O)c2)c1 [TANNIC ACID] : 1
CC(C)NNC(=O)c1ccncc1 [IPRONIAZID] : 1
NC1=NC(=O)C(c2ccccc2)O1 (stereo not drawn) [PEMOLINE] : 1
Cc1nnc2n1-c1ccc(Cl)cc1C(c1ccccc1Cl)=NC2 [TRIAZOLAM] : 1.2
CCOc1ccc(NC(C)=O)cc1 [PHENACETIN] : 1
CCCc1cc(=O)[nH]c(=S)[nH]1 [PROPYLTHIOURACIL] : 2
Nc1c2c(nc3ccccc13)CCCC2 [TACRINE] : 1
CNC(=C[N+](=O)[O-])NCCSCc1ccc(CN(C)C)o1 [RANITIDINE] : 1.2
Brc1ccccc1 [BROMOBENZENE] : 1.2
CN1C(=O)CCS(=O)(=O)C1c1ccc(Cl)cc1 (stereo not drawn) [CHLORMEZANONE] : 1.2
COC(=O)C1=C(C)NC(C)=C(C(=O)OC)C1c1ccccc1[N+](=O)[O-] [NIFEDIPINE] : 1
